Measurement Kind: melting point

Exercise: Look up melting point: Cl.Nc1nc(NCCc2c[nH]c3ccccc23)nc(Nc2ccc(F)cc2)n1
Solution: 232 to 235 °C

Exercise: Look up melting point: Cl.N#Cc1ccc2[nH]cc(CCNc3nc(N)nc(NCCc4ccccc4)n3)c2c1
Solution: 95 to 98 °C

Exercise: Look up melting point: Cl.Nc1nc(NCCc2c[nH]c3ccccc23)nc(NCCn2cnc3ccccc32)n1
Solution: 195 to 200 °C

---

Biological target: 5-HT7 receptor (Homo sapiens, UniProt P34969)
Construct: host or cells: cell membranes from cultured cells
Sequence (P34969 1-432 limits assumed): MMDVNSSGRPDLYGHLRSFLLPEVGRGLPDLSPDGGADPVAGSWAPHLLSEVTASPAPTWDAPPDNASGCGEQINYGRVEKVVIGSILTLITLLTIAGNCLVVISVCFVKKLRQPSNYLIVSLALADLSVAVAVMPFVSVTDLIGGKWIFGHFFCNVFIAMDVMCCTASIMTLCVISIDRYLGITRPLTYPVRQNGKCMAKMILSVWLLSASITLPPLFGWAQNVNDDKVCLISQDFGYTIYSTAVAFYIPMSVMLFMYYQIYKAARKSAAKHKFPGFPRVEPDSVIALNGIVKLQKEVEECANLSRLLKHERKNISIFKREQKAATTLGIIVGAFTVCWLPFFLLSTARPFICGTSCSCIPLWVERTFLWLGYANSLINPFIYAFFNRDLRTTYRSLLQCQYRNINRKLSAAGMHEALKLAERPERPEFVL
Experiment: Radioligand binding assay, 5-HT7 receptor
Conditions: SAR discussion of radioligand data
Procedure: The affinity of the studied compounds to 5-HT1A, 5-HT2A, 5-HT6, 5-HT7, and D2 receptors was evaluated by a radioligand assay, as reported previously (Table 1). Each compound was tested in triplicate at seven concentrations (from 0.1 nM to 100 µM). Inhibition constants (Ki) were calculated from the Cheng–Prusoff equation [23]. The cell culture, cell membranes, and radioligand binding assays were performed in accordance with standard protocols.
Measurement Kind: activity with respect to 5-HT7R (in words)

Exercise: Look up activity with respect to 5-HT7R (in words): Cl.Nc1nc(NCCNc2cccc(F)c2)nc(NCCc2c[nH]c3ccccc23)n1 [Compound 11]
Solution: active

Exercise: Look up activity with respect to 5-HT7R (in words): Cl.Nc1nc(NCCNc2ccc(F)cc2)nc(NCCc2c[nH]c3ccccc23)n1 [Compound 12]
Solution: active

Exercise: Look up activity with respect to 5-HT7R (in words): Cl.Nc1nc(NCCNc2cccc(Cl)c2)nc(NCCc2c[nH]c3ccccc23)n1 [Compound 8]
Solution: moderately active

Exercise: Look up activity with respect to 5-HT7R (in words): Cl.Nc1nc(NCCc2c[nH]c3ccccc23)nc(Nc2ccc(F)cc2)n1 [Compound 21]
Solution: inactive

Continuing:
Exercise: Look up activity with respect to 5-HT7R (in words): Cl.Nc1nc(NCCNc2ccc(Cl)cc2)nc(NCCc2c[nH]c3ccccc23)n1 [Compound 9]
Solution: active

Exercise: Look up activity with respect to 5-HT7R (in words): Cl.Nc1nc(NCCc2c[nH]c3ccccc23)nc(Nc2cccc(Cl)c2)n1 [Compound 20]
Solution: inactive

Exercise: Look up activity with respect to 5-HT7R (in words): Cl.Nc1nc(NCCNc2ccccc2Cl)nc(NCCc2c[nH]c3ccccc23)n1 [Compound 7]
Solution: moderately active

Exercise: Look up activity with respect to 5-HT7R (in words): Cl.Nc1nc(NCCNc2ccccc2F)nc(NCCc2c[nH]c3ccccc23)n1 [Compound 10]
Solution: moderately active

---

Would you mind telling me the reported log10(Ki) of each entry?
Heads up: the numbers are on a log10 scale; they represent Ki in nM.

Exercise: Fill in the recorded log10(Ki) for this molecule, with 5-HT2A receptor (Homo sapiens, UniProt P28223) as test system: Cl.Nc1nc(NCCNc2ccc(Cl)cc2)nc(NCCc2c[nH]c3ccccc23)n1
Sequence (P28223 whole entry): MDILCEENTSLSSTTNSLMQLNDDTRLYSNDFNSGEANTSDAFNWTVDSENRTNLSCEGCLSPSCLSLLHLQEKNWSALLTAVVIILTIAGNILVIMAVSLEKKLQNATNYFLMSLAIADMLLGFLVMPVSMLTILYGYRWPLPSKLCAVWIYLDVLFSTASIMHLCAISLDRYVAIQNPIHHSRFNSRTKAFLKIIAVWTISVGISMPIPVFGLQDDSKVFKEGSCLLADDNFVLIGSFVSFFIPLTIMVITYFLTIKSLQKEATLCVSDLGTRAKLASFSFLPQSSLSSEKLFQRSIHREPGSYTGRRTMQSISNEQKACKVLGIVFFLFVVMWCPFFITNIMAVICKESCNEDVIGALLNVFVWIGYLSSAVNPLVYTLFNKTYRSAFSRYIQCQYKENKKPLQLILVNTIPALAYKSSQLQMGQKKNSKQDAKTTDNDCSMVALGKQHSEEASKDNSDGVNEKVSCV
Solution: 3.43

Exercise: Fill in the recorded log10(Ki) for this molecule, with 5-HT2A receptor (Homo sapiens, UniProt P28223) as test system: Cl.Nc1nc(NCCc2c[nH]c3ccccc23)nc(NCCn2cnc3ccccc32)n1
Solution: 4.05

Exercise: Fill in the recorded log10(Ki) for this molecule, with 5-HT2A receptor (Homo sapiens, UniProt P28223) as test system: COc1cccc(NCCNc2nc(N)nc(NCCc3c[nH]c4ccccc34)n2)c1.Cl
Solution: 3.39

Exercise: Fill in the recorded log10(Ki) for this molecule, with 5-HT2A receptor (Homo sapiens, UniProt P28223) as test system: Cl.Nc1nc(NCCNc2ccccc2F)nc(NCCc2c[nH]c3ccccc23)n1
Solution: 3.18

Exercise: Fill in the recorded log10(Ki) for this molecule, with 5-HT2A receptor (Homo sapiens, UniProt P28223) as test system: Cl.Nc1nc(NCCNc2cccc(F)c2)nc(NCCc2c[nH]c3ccccc23)n1
Solution: 3.11

Exercise: Fill in the recorded log10(Ki) for this molecule, with 5-HT2A receptor (Homo sapiens, UniProt P28223) as test system: Cl.Nc1nc(NCCc2c[nH]c3ccccc23)nc(Nc2ccc(F)cc2)n1
Solution: 2.95

Exercise: Fill in the recorded log10(Ki) for this molecule, with 5-HT2A receptor (Homo sapiens, UniProt P28223) as test system: Cl.Nc1nc(NCCNc2cccc(Cl)c2)nc(NCCc2c[nH]c3ccccc23)n1
Solution: 3.26

Exercise: Fill in the recorded log10(Ki) for this molecule, with 5-HT2A receptor (Homo sapiens, UniProt P28223) as test system: Cl.Nc1nc(NCCc2ccccc2)nc(NCCc2c[nH]c3ccc(F)cc23)n1
Solution: 2.62

Exercise: Fill in the recorded log10(Ki) for this molecule, with 5-HT2A receptor (Homo sapiens, UniProt P28223) as test system: Cl.Nc1nc(NCCNc2ccccc2Cl)nc(NCCc2c[nH]c3ccccc23)n1
Solution: 3.33

Exercise: Fill in the recorded log10(Ki) for this molecule, with 5-HT2A receptor (Homo sapiens, UniProt P28223) as test system: Cl.N#Cc1ccc2[nH]cc(CCNc3nc(N)nc(NCCc4ccccc4)n3)c2c1
Solution: 2.97

Exercise: Fill in the recorded log10(Ki) for this molecule, with 5-HT2A receptor (Homo sapiens, UniProt P28223) as test system: Cl.Nc1nc(NCCNc2ccc(F)cc2)nc(NCCc2c[nH]c3ccccc23)n1
Solution: 3.55

Exercise: Fill in the recorded log10(Ki) for this molecule, with 5-HT2A receptor (Homo sapiens, UniProt P28223) as test system: Cc1nc2ccccc2n1CCNc1nc(N)nc(NCCc2c[nH]c3ccccc23)n1.Cl
Solution: 3.97

Exercise: Fill in the recorded log10(Ki) for this molecule, with 5-HT2A receptor (Homo sapiens, UniProt P28223) as test system: Cl.Nc1nc(NCCc2c[nH]c3ccccc23)nc(Nc2cccc(Cl)c2)n1
Solution: 3.43

Exercise: Fill in the recorded log10(Ki) for this molecule, with 5-HT2A receptor (Homo sapiens, UniProt P28223) as test system: Cl.Nc1nc(NCCc2c[nH]c3ccccc23)nc(NCCN2C(=O)c3ccccc3C2=O)n1
Solution: 4.35

Exercise: Fill in the recorded log10(Ki) for this molecule, with 5-HT2A receptor (Homo sapiens, UniProt P28223) as test system: Cc1ccc2[nH]cc(CCNc3nc(N)nc(NCCc4ccccc4)n3)c2c1.Cl
Solution: 2.92

Exercise: Fill in the recorded log10(Ki) for this molecule, with 5-HT2A receptor (Homo sapiens, UniProt P28223) as test system: COc1ccc(Nc2nc(N)nc(NCCc3c[nH]c4ccccc34)n2)cc1.Cl
Solution: 3.49

---

Measurement Kind: melting point

Exercise: Look up melting point: Cl.Nc1nc(NCCNc2ccccc2Cl)nc(NCCc2c[nH]c3ccccc23)n1
Solution: 105 to 108 °C

Exercise: Look up melting point: Cl.Nc1nc(NCCc2c[nH]c3ccccc23)nc(NCCN2C(=O)c3ccccc3C2=O)n1
Solution: 136 to 138 °C

Exercise: Look up melting point: Cl.Nc1nc(NCCc2c[nH]c3ccccc23)nc(Nc2cccc(Cl)c2)n1
Solution: 174 to 178 °C

Exercise: Look up melting point: Cc1nc2ccccc2n1CCNc1nc(N)nc(NCCc2c[nH]c3ccccc23)n1.Cl
Solution: 190 to 194 °C

Exercise: Look up melting point: COc1ccc(NCCNc2nc(N)nc(NCCc3c[nH]c4ccccc34)n2)cc1.Cl
Solution: 150 to 153 °C

Exercise: Look up melting point: Cl.Nc1nc(NCCNc2ccc(Cl)cc2)nc(NCCc2c[nH]c3ccccc23)n1
Solution: 97 to 100 °C

Exercise: Look up melting point: COc1ccc(Nc2nc(N)nc(NCCc3c[nH]c4ccccc34)n2)cc1.Cl
Solution: 194 to 196 °C

Exercise: Look up melting point: Cc1ccc2[nH]cc(CCNc3nc(N)nc(NCCc4ccccc4)n3)c2c1.Cl
Solution: 118 to 121 °C

---

Endpoint: Ki. System: UniProt P50406. Items follow.
Sequence (P50406 whole entry): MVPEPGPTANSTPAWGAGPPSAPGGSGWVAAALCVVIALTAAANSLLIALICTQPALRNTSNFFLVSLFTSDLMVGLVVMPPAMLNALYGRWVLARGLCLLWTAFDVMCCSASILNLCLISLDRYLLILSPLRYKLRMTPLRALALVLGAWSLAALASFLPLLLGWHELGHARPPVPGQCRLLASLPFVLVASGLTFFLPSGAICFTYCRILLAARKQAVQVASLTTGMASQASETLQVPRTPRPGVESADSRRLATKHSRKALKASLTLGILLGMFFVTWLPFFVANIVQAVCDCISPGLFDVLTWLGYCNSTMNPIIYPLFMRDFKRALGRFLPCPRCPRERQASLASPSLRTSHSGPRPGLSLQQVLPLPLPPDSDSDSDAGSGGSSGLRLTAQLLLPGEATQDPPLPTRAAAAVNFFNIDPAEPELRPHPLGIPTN
Write it as a number; the unit µM goes unstated.

Exercise: Look up Ki: Cl.Nc1nc(NCCc2c[nH]c3ccccc23)nc(NCCn2c(C(F)(F)F)nc3ccccc32)n1 [Compound 19]
Solution: 0.825

Exercise: Look up Ki: Cl.Nc1nc(NCCc2c[nH]c3ccccc23)nc(Nc2cccc(Cl)c2)n1 [Compound 20]
Solution: 2.23

Exercise: Look up Ki: Cl.Nc1nc(NCCNc2ccccc2Cl)nc(NCCc2c[nH]c3ccccc23)n1 [Compound 7]
Solution: 0.892

Exercise: Look up Ki: COc1ccc(Nc2nc(N)nc(NCCc3c[nH]c4ccccc34)n2)cc1.Cl [Compound 22]
Solution: 3.74

Exercise: Look up Ki: Cl.Nc1nc(NCCNc2ccccc2F)nc(NCCc2c[nH]c3ccccc23)n1 [Compound 10]
Solution: 0.982

Exercise: Look up Ki: Cl.Nc1nc(NCCNc2ccc(F)cc2)nc(NCCc2c[nH]c3ccccc23)n1 [Compound 12]
Solution: 1.63

Exercise: Look up Ki: Cc1ccc2[nH]cc(CCNc3nc(N)nc(NCCc4ccccc4)n3)c2c1.Cl [Compound 6]
Solution: 0.714

Exercise: Look up Ki: Cl.Nc1nc(NCCc2c[nH]c3ccccc23)nc(Nc2ccc(F)cc2)n1 [Compound 21]
Solution: 1.77

Exercise: Look up Ki: Cl.Nc1nc(NCCc2ccccc2)nc(NCCc2c[nH]c3ccc(Cl)cc23)n1 [Compound 4]
Solution: 0.702

Exercise: Look up Ki: Cl.Nc1nc(NCCNc2cccc(F)c2)nc(NCCc2c[nH]c3ccccc23)n1 [Compound 11]
Solution: 0.979

Exercise: Look up Ki: Cl.Nc1nc(NCCNc2cccc(Cl)c2)nc(NCCc2c[nH]c3ccccc23)n1 [Compound 8]
Solution: 4.02

Exercise: Look up Ki: Cl.Nc1nc(NCCNc2ccc(Cl)cc2)nc(NCCc2c[nH]c3ccccc23)n1 [Compound 9]
Solution: 0.641

Exercise: Look up Ki: Cl.Nc1nc(NCCc2ccccc2)nc(NCCc2c[nH]c3ccc(F)cc23)n1 [Compound 2]
Solution: 0.505

Origin of the recorded values: paper PMC9656787
